Give measured body weight for each item. Keep answers brief.
- EXPERIMENT NOTES: Tolerability in Sprague-Dawley rats, body and organ weights (Example 21)
- Format: in vivo
- TEST CONDITIONS: male Sprague-Dawley rats, 50 mg/kg s.c. weekly for 6 weeks (7 doses), terminal, prior to necropsy
Strand notation (5' to 3'): a small letter for the sugar, then the base; units joined by * are phosphorothioate-linked, units joined directly phosphodiester-linked; [ ] holds rarer units or linkages, { } end groups; capitals alone tell only the bases. e = 2'-O-(2-methoxyethyl) (MOE); k = constrained ethyl (cEt); [5mC] = 5-methylcytosine; d = 2'-deoxy (DNA)
Answers are plain numbers, in g.

Quote body weight reported for 1074756 (kG*k[5mC]*kA*d[5mC]*dT*dT*dT*dT*dA*d[5mC]*dA*dT*dT*kA*kG*kG) [compound 1074756] please.
349

Quote body weight reported for 1198615 (kT*kT*kA*dA*dA*dG*dT*dG*dT*dA*dT*dG*kT*k[5mC]*kA*eG) [compound 1198615] please.
369

Quote body weight reported for 1198874 (kA*kA*dG*dT*dG*dT*dA*dT*dG*dT*d[5mC]*kA*eG*kA*eA*kG) [compound 1198874] please.
372

Turning to the following substance.
Quote body weight reported for 1198873 (kA*kG*dT*dG*dT*dA*dT*dG*dT*d[5mC]*dA*kG*eA*kA*eG*kA; antisense) [compound 1198873] please.
408

----------
- Tested on: Yap1 mRNA
- EXPERIMENT NOTES: Dose-dependent inhibition of human Yap1 in A-431 cells (Example 7, 10,000 cells per well, RTS36584)
- Format: cell-based
- TEST CONDITIONS: Table 56, 62.5 nM, free uptake, A-431 cells 10,000 cells per well, 48 hours
Strand notation (5' to 3'): a small letter for the sugar, then the base; units joined by * are phosphorothioate-linked, units joined directly phosphodiester-linked; [ ] holds rarer units or linkages, { } end groups; capitals alone tell only the bases. k = constrained ethyl (cEt); [5mC] = 5-methylcytosine; d = 2'-deoxy (DNA)
RECORDED METRIC: Yap1 mRNA, % UTC (% UTC)
Numbers only, in % UTC.

Below: 4 substances and their reported Yap1 mRNA, % UTC.
Quote Yap1 mRNA, % UTC reported for 958377 (antisense kG*k[5mC]*kT*dG*dG*dG*dA*dT*dT*dG*dA*dT*dA*kT*kT*k[5mC]) [compound 958377] please.
60

Quote Yap1 mRNA, % UTC reported for 958496 (k[5mC]*k[5mC]*kT*dT*dA*dT*dA*dA*dG*d[5mC]*dT*d[5mC]*d[5mC]*kT*kA*kA; antisense) [compound 958496] please.
53

Quote Yap1 mRNA, % UTC reported for 958596 (kA*kG*k[5mC]*dA*dG*dT*dT*dA*dA*dG*d[5mC]*dA*d[5mC]*kT*kT*kT; antisense) [compound 958596] please.
38

Quote Yap1 mRNA, % UTC reported for 958726 (k[5mC]*kT*kG*dT*d[5mC]*dA*dG*dT*dT*dA*dT*d[5mC]*d[5mC]*kT*kA*kT; antisense) [compound 958726] please.
70

For each listed entry, give its Yap1 mRNA, % UTC.
1. 958721 (kG*kT*kA*dG*dT*dA*dT*dA*dA*dT*dG*dA*dG*kT*kT*kA; antisense) [compound 958721]
2. 958370 (antisense k[5mC]*kT*kT*dT*dA*dT*d[5mC]*dT*dA*dG*d[5mC]*dT*dT*kG*kG*kT) [compound 958370]
3. 958371 (antisense kA*k[5mC]*k[5mC]*dA*dA*d[5mC]*dT*dA*dT*dT*dA*d[5mC]*dT*kT*k[5mC]*kA) [compound 958371]
4. 958369 (antisense kT*kT*kA*dT*d[5mC]*dT*dA*dG*d[5mC]*dT*dT*dG*dG*kT*kG*kG) [compound 958369]
5. 958796 (kA*kT*kT*dA*dT*dA*dT*dG*dG*dT*dT*dG*d[5mC]*kT*kT*k[5mC]; antisense) [compound 958796]

32
74
57
68
62

----------
- Tested on: Yap1 mRNA
- EXPERIMENT NOTES: Antisense inhibition of human Yap1 in SNU-449 cells by modified oligonucleotides, single dose (Example 5, RTS36584)
- Type: cell-based
- TEST CONDITIONS: Table 39; SNU-449 cells, 10,000 cells per well, free uptake, 2,000 nM oligonucleotide, approx. 48 hours; RTS36584; normalized to RIBOGREEN; Yap1 mRNA relative to untreated control
Strand notation (5' to 3'): a small letter for the sugar, then the base; units joined by * are phosphorothioate-linked, units joined directly phosphodiester-linked; [ ] holds rarer units or linkages, { } end groups; capitals alone tell only the bases. e = 2'-O-(2-methoxyethyl) (MOE); k = constrained ethyl (cEt); [5mC] = 5-methylcytosine; d = 2'-deoxy (DNA)
Give measured YAP1 (% UTC) for each item. Keep answers brief.
One number for each entry, in % UTC.

Quote YAP1 (% UTC) reported for 1198423 (kT*d[5mC]*dT*dT*dA*dT*dA*dT*dG*dG*dT*kT*eT*kT*eG*kT) [Compound 1198423] please.
10

Quote YAP1 (% UTC) reported for 1198452 (kA*d[5mC]*dT*dA*dA*dG*dT*dA*dA*dG*dG*kT*eT*kT*e[5mC]*k[5mC]; antisense) [Compound 1198452] please.
38

For each listed entry, give its YAP1 (% UTC).
1. 1198420 (kA*dT*dA*dT*dG*dG*dT*dT*dT*dT*dG*kT*eG*kT*eG*kT; antisense) [Compound 1198420]
2. 1095399 (antisense k[5mC]*dA*d[5mC]*dT*dG*dA*dG*dG*dT*dA*dT*kA*eA*k[5mC]*eT*kG) [Compound 1095399]

1. 41
2. 46

----------
- System: Yap1 mRNA
- EXPERIMENT NOTES: Dose-dependent inhibition of human Yap1 in A-431 cells (Example 7, 10,000 cells per well, RTS36584)
- Assay type: cell-based
- TEST CONDITIONS: 15.6 nM, A-431 cells, 10,000 cells per well, free uptake, approximately 48 hours
Strand notation (5' to 3'): a small letter for the sugar, then the base; units joined by * are phosphorothioate-linked, units joined directly phosphodiester-linked; [ ] holds rarer units or linkages, { } end groups; capitals alone tell only the bases. k = constrained ethyl (cEt); [5mC] = 5-methylcytosine; d = 2'-deoxy (DNA)
Give measured Yap1 mRNA, % UTC for each item. Keep answers brief.
Numbers only, in % UTC.

Below: 4 substances and their reported Yap1 mRNA, % UTC.
Quote Yap1 mRNA, % UTC reported for 958615 (kT*kG*kG*dT*d[5mC]*dT*dT*dG*dT*dT*d[5mC]*dT*dT*kA*kT*kG; antisense) [compound 958615] please.
91

Quote Yap1 mRNA, % UTC reported for 958550 (k[5mC]*k[5mC]*kT*dG*dT*dA*dG*dA*d[5mC]*dA*d[5mC]*dA*dT*kA*k[5mC]*kT; antisense) [compound 958550] please.
91

Quote Yap1 mRNA, % UTC reported for 958575 (kG*kG*k[5mC]*dT*dA*d[5mC]*dT*dG*dG*d[5mC]*dA*dA*dA*kT*kT*kA; antisense) [compound 958575] please.
89

Quote Yap1 mRNA, % UTC reported for 958819 (kT*kG*k[5mC]*dT*dT*d[5mC]*dA*dA*d[5mC]*dA*dT*dT*dG*kT*kT*k[5mC]; antisense) [compound 958819] please.
79

For each listed entry, give its Yap1 mRNA, % UTC.
1. 958650 (kT*k[5mC]*kA*dA*dT*dT*dG*dA*dG*dT*d[5mC]*dT*dG*k[5mC]*kT*kA; antisense) [compound 958650]
2. 958570 (kT*kG*kT*dA*dA*dT*dT*d[5mC]*dA*dT*dA*dT*dA*k[5mC]*k[5mC]*k[5mC]; antisense) [compound 958570]
3. 958734 (kA*k[5mC]*kA*d[5mC]*dA*dT*dA*dG*dA*dG*d[5mC]*dT*dA*kA*kG*kG; antisense) [compound 958734]
4. 958535 (kG*kG*kG*dT*d[5mC]*dA*dA*dT*dT*dT*dT*d[5mC]*dA*kG*k[5mC]*kA; antisense) [compound 958535]
5. 958555 (kG*k[5mC]*kT*dT*dA*dT*dA*dT*dT*dG*dA*dA*dG*kA*kG*kT; antisense) [compound 958555]
6. 958625 (kT*kG*k[5mC]*dT*dG*dG*dG*dA*dT*dT*dG*dA*dT*kA*kT*kT; antisense) [compound 958625]

1. 82
2. 93
3. 87
4. 98
5. 99
6. 86

For each listed entry, give its Yap1 mRNA, % UTC.
1. 958594 (k[5mC]*kT*k[5mC]*dT*dT*dA*dG*dG*dT*d[5mC]*dT*d[5mC]*d[5mC]*kT*kT*k[5mC]; antisense) [compound 958594]
2. 958600 (kG*kT*kA*dG*dA*dT*d[5mC]*dT*dA*dA*dG*dA*dA*kG*k[5mC]*k[5mC]; antisense) [compound 958600]

1: 91; 2: 69

For each listed entry, give its Yap1 mRNA, % UTC.
1. 958525 (kA*kT*kG*dA*dA*dG*dG*dT*dA*dA*dA*d[5mC]*d[5mC]*kA*k[5mC]*kT; antisense) [compound 958525]
2. 958795 (kT*kA*kT*dT*d[5mC]*d[5mC]*dG*d[5mC]*dA*dT*dT*dG*d[5mC]*k[5mC]*kT*kA; antisense) [compound 958795]
3. 958785 (kG*k[5mC]*kA*dA*dT*d[5mC]*d[5mC]*dA*d[5mC]*dA*dA*dT*dT*k[5mC]*k[5mC]*kA; antisense) [compound 958785]
4. 958580 (kA*kT*kA*dA*dT*d[5mC]*dT*dT*dA*dA*dT*d[5mC]*dT*kG*kT*kG; antisense) [compound 958580]
5. 958725 (kG*kT*k[5mC]*dA*dG*dT*dT*dA*dT*d[5mC]*d[5mC]*dT*dA*kT*k[5mC]*k[5mC]; antisense) [compound 958725]
6. 958605 (k[5mC]*kT*k[5mC]*dA*dG*dA*dT*dG*dT*dA*d[5mC]*d[5mC]*dA*kA*k[5mC]*kG; antisense) [compound 958605]

1: 94; 2: 90; 3: 78; 4: 95; 5: 65; 6: 76

Quote Yap1 mRNA, % UTC reported for 958585 (k[5mC]*kT*k[5mC]*dT*dA*dT*d[5mC]*dA*dA*dG*dG*dT*d[5mC]*k[5mC]*k[5mC]*k[5mC]; antisense) [compound 958585] please.
95
